system: Ramos; assay: Inhibition of […] in serum-starved human Ramos cells incubated for 1 hr followed by anti-human IgM F(ab)2 measured after 5 mins; assay type: functional, cell-based
readout_label: IC50 (µM)

Worked set:
Cc1cccc2[nH]c(-c3n[nH]cc3Nc3ncnc4[nH]ccc34)nc12 :: 0.0392
CCN(CC)c1ccc2[nH]c(-c3n[nH]cc3Nc3ncnc4[nH]ccc34)nc2c1 :: 0.0785

[I] CN(C)c1ccc2[nH]c(-c3n[nH]cc3Nc3ncnc4[nH]ccc34)nc2c1
[II] CN(C)c1cccc2[nH]c(-c3n[nH]cc3Nc3ncnc4[nH]ccc34)nc12
IN: When their IC50 values are compared, which is larger, I or II ? Field: selected label. Fill in the label of the entry you choose.
OUT: I

---

target: Tyrosine-protein kinase SYK (Homo sapiens, UniProt P43405); assay: Inhibition of Syk (unknown origin) preincubated for 20 mins followed by 33P-gamma-ATP measured after 120 mins by HotSpot assay
readout_label: IC50 (nM)

Example entries begin here.
Cc1ccc2[nH]c(-c3n[nH]cc3Nc3ncnc4[nH]ccc34)nc2c1 :: 9.3
CN(C)c1cccc2[nH]c(-c3n[nH]cc3Nc3ncnc4[nH]ccc34)nc12 :: 11.1
CC(C)N1CCN(c2ccc3[nH]c(-c4n[nH]cc4Nc4ncnc5[nH]ccc45)nc3c2)CC1 :: 0.52

[1] Cc1cccc2[nH]c(-c3n[nH]cc3Nc3ncnc4[nH]ccc34)nc12
[2] c1nc(Nc2c[nH]nc2-c2nc3cc(OCCN4CCOCC4)ccc3[nH]2)c2cc[nH]c2n1
IN: Problem: Given the entries 1 and 2 , determine which has the lower reported IC50. Answer format: the label of the selected item.
OUT: 2
